target: arginine vasopressin V1 receptor (Rattus norvegicus); construct: A rat liver membrane sample was prepared; from tissue; host or cells: rat liver membranes; assay: V1 receptor binding assay ([3H]-Arg-vasopressin, rat liver membrane); conditions: rat liver membrane, [3H]-Arg-vasopressin 2 nM, 30° C., 30 minutes, pH 8.0; read-out: Binding activity on arginine vasopressin V1 receptor (pKi) (converted)
Sequence (P30560 whole entry): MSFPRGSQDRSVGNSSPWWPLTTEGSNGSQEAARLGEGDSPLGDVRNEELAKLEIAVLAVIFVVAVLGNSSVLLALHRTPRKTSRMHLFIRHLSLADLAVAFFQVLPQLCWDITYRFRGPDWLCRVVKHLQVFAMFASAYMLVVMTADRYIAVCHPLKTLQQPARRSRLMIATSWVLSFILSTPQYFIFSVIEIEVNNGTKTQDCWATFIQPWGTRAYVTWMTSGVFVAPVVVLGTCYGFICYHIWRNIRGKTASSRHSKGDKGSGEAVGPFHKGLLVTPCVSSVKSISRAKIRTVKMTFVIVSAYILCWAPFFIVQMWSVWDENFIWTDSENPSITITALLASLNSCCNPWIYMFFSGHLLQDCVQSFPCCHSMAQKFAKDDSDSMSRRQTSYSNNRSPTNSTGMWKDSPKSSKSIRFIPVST
measure: Ki (nM)
One number for each entry, in nM.

Below: 2 molecules and their reported Ki.
CCNC(=O)/C=C1/c2ccccc2N(C(=O)c2ccc(NC(=O)c3ccccc3-c3ccccc3)cc2)CCC1(F)F = 0.2
Cl.O=C(Nc1ccc(C(=O)N2CCC(F)(F)/C(=C\CN3CCCC3)c3ccccc32)cc1)c1ccccc1-c1ccccc1 [Example 81, hydrochloride] = 0.724

// below: Ki requested for another molecule
Ask: Under arginine vasopressin V1 receptor (Rattus norvegicus): Ki value of CN(C)C1CCN(C(=O)/C=C2/c3ccccc3N(C(=O)c3ccc(NC(=O)c4cccc(Cl)c4)cc3)CCC2(F)F)CC1.Cl [Example 96, hydrochloride] ?
Result: 2

---

Assign Binding activity on arginine vasopressin V2 receptor (pKi) to each entry below.
target: arginine vasopressin V2 receptor (Oryctolagus cuniculus, UniProt G1TA00); experiment: V2 receptor binding assay ([3H]-Arg-vasopressin, rabbit renal medulla membrane); conditions: rabbit renal medulla membrane, [3H]-Arg-vasopressin 2 nM
Sequence (G1TA00 78-446): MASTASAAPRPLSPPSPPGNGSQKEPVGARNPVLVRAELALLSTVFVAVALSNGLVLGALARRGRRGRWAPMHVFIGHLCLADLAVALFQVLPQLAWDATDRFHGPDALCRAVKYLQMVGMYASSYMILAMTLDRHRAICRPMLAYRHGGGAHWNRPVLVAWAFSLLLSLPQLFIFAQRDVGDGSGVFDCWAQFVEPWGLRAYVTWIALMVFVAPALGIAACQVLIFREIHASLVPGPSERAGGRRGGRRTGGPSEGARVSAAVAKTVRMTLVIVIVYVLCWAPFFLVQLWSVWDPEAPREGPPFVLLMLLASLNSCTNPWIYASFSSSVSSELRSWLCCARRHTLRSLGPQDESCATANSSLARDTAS
Answers are plain numbers.

Please review the entries below; each comes with its answer.
Cl.O=C(Nc1ccc(C(=O)N2CCC(F)(F)/C(=C\C(=O)N3CCNCC3)c3ccccc32)cc1)c1ccccc1-c1ccccc1 = 9.71
Cl.O=C(/C=C1/c2ccccc2N(C(=O)c2ccc(NC(=O)c3ccccc3-c3ccccc3)cc2)CCC1(F)F)NC1CN2CCC1CC2 (racemic) = 9.97

Could you now look at the following molecule, please?
Ask: # query: Binding activity on arginine vasopressin V2 receptor (pKi) of entry CN(C)C(=O)/C=C1/c2ccccc2N(C(=O)c2ccc(NC(=O)c3ccccc3-c3ccccc3)cc2)CCC1(F)F
Result: 8.24

---

Please go through the items and note down their Ki.
target: arginine vasopressin V1 receptor (Rattus norvegicus); construct: A rat liver membrane sample was prepared; from tissue; host or cells: rat liver membranes; assay: V1 receptor binding assay ([3H]-Arg-vasopressin, rat liver membrane); conditions: rat liver membrane, [3H]-Arg-vasopressin 2 nM, 30° C., 30 minutes, pH 8.0; read-out: Binding activity on arginine vasopressin V1 receptor (pKi) (converted)
Where a name gives a salt, the structure may show the parent alone.
Numbers only, in nM.

// solved cases for Ki follow
Cl.O=C(/C=C1/c2ccccc2N(C(=O)c2ccc(NC(=O)c3ccccc3-c3ccccc3)cc2)CCC1(F)F)NC1CN2CCC1CC2 (racemic) [Example 85, hydrochloride] = 0.0955
Cc1ccccc1CC(=O)Nc1ccc(C(=O)N2CCC(F)(F)/C(=C\C(=O)N3CCC(N(C)C)CC3)c3ccccc32)cc1 [Example 106, hydrochloride] = 1.12
O=C(Nc1ccc(C(=O)N2CCC(F)(F)/C(=C\C(=O)N3CCCNCC3)c3ccccc32)cc1)c1ccccc1-c1ccccc1 [Example 28, hydrochloride] = 0.0832
CC(C)NC(=O)/C=C1/c2ccccc2N(C(=O)c2ccc(NC(=O)c3ccccc3-c3ccccc3)cc2)CCC1(F)F = 0.282

Provide Ki for all items below, preserving their order.
1. CN1CCC(N(C)C(=O)/C=C2/c3ccccc3N(C(=O)c3ccc(NC(=O)c4ccccc4-c4ccccc4)cc3)CCC2(F)F)CC1
2. Cl.O=C(Nc1ccc(C(=O)N2CCC(F)(F)/C(=C\C(=O)N3CCNCC3)c3ccccc32)cc1)c1ccccc1-c1ccccc1 [Example 12, hydrochloride]

Result:
0.102
0.219
